Where these numbers come from: PubChem BioAssay (NCI)

run_description: NCI Yeast Anticancer Drug Screen. Data for the rad50 strain (AID 155);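 also: 0% = growth of vehicle-only cultures of the same strain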
run_parameters: S. cerevisiae rad50 strain growth inhibition; at 5.0 µM (retest, dose inferred, filed as 0.5); stronger effect = higher value
This is part of a sample that, as a whole, favours compounds with a hit. Of some 79,000 tested, about 15% had one in any assay.
So I've got a bunch of compounds here, and I need their growth inhibition values.
Only the number, expressed in %, is required.

Query :: Please report the measured growth inhibition for CC(C)(C)C(=O)OC12/C(=N/O)CCCCCC1c1ccccc12 (stereo unspecified)
Result :: -17

Query :: Please report the measured growth inhibition for COC(=O)c1cn(NS(=O)(=O)c2ccc(OC)cc2)cc1C(=O)OC
Result :: -6

Query :: Please report the measured growth inhibition for CN=C(N)NN=C(c1ccc(Cl)cc1)c1ccc(Cl)cc1
Result :: 32

Query :: Please report the measured growth inhibition for CCOC(=O)/C(C#N)=C\c1cccc2ccccc12
Result :: 13

Query :: Please report the measured growth inhibition for CC(C)Sc1nc(NC(=O)N(CCCl)N=O)cc(=O)[nH]1
Result :: -12

Query :: Please report the measured growth inhibition for CCCCCCCN1C(=O)c2ccccc2S1(=O)=O
Result :: -2

Query :: Please report the measured growth inhibition for Cc1ccc(NC(=O)Cc2nc3ccccc3s2)c(C)c1
Result :: 7

Query :: Please report the measured growth inhibition for Cc1c(C)c(C)c(C(=O)c2ccccc2C(=O)NCCSC(C)(C)C)c(C)c1C
Result :: 42

Query :: Please report the measured growth inhibition for Cc1ccc(C)c(C2CCCCC2O)c1 (stereo unspecified)
Result :: -1

Query :: Please report the measured growth inhibition for CN(NC(=O)CC(=O)NN(C)C(=S)c1ccccc1)C(=S)c1ccccc1
Result :: 76

Query :: Please report the measured growth inhibition for COc1cc(C(c2cc3c(cc2O)OCO3)N2CCN(C(c3ccc(O)c(OC)c3)c3cc4c(cc3O)OCO4)CC2)ccc1O (stereo unspecified)
Result :: -1

----------
run_description: NCI Yeast Anticancer Drug Screen. Data for the mlh1 rad18 strain (AID 175)
run_parameters: S. cerevisiae mlh1 rad18 strain growth inhibition; at 5.0 µM (retest, dose inferred, filed as 0.5)
About 79,000 compounds went through this panel and 15% of them were active in at least one assay; those are over-represented in the sample as a whole. Active and inactive are the calls of the source. No stated cut-off is given here; in the data, active means growth inhibition above about 70%; inactive means the rest.
The categories you may choose from are t = active, f = inactive

Query :: Test call, this molecule: CCCCSc1nc2c([nH]1)c(=S)n(C)c(=S)n2C
Result :: f

Query :: Test call, this molecule: O=S(=O)(c1cc(Cl)ccc1Cl)N1CCc2ccccc2C1
Result :: f

Query :: Test call, this molecule: CSC(=S)n1nc(-c2ccccc2)c(N=Nc2ccccc2[N+](=O)[O-])c1C
Result :: f

Query :: Test call, this molecule: CCC1=CCC2C(=O)c3cc4ccccc4cc3C(=O)C2C1 (stereo not given)
Result :: f

Query :: Test call, this molecule: Cn1c(=NCCc2ccccc2)oc2ccc(Cl)cc21
Result :: f

Query :: Test call, this molecule: O=S1Nc2ccccc2S1 (stereo not given)
Result :: f

Query :: Test call, this molecule: O=C1/C(=C/c2ccccc2Cl)COc2ccccc21
Result :: f

Query :: Test call, this molecule: Cc1c2c(c(C)c3c4c(oc13)CCCC4)C=NCC2
Result :: f

Query :: Test call, this molecule: CC#CCCCCOC(=O)c1cc([N+](=O)[O-])cc([N+](=O)[O-])c1
Result :: t

Query :: Test call, this molecule: CN(C)C(N)=NC#N
Result :: f

Query :: Test call, this molecule: Cc1cc(O)ccc1SC#N
Result :: f

Query :: Test call, this molecule: COC(=O)c1ccc(CCc2cc(O)ccc2O)cc1
Result :: t

Query :: Test call, this molecule: COc1ccc(C2c3cc4c(cc3OC(O)(CO)C2C(=O)O)OCO4)cc1 (stereo not given) (tested in a mixture with another compound)
Result :: f

Query :: Test call, this molecule: COC(=O)c1ccccc1CC1Cc2cccc(C)c2C1=O (stereo not given)
Result :: f

Query :: Test call, this molecule: CC(=O)Nc1ccc(C(=O)NN2C(=O)C(Cl)C2c2cc(Br)cc(Br)c2O)cc1 (stereo not given)
Result :: f

Query :: Test call, this molecule: Oc1ccc(CCCCCc2ccc(O)cc2)cc1
Result :: f

Query :: Test call, this molecule: CSc1cc(Cl)c(C)cc1S(=O)(=O)NC(=O)Nc1ccc(Cl)cc1
Result :: f

Query :: Test call, this molecule: O=C1/C(=N/N=C(c2ccccc2)c2ccccc2)c2ccccc2-c2ccccc21
Result :: f

Query :: Test call, this molecule: CC1=C(\C=C/C(C)=N/N=C(C)\C=C\C2=C(C)CCCC2(C)C)C(C)(C)CCC1
Result :: f

Query :: Test call, this molecule: O=S(=O)(Nc1ccc2c3c(cccc13)C=C2)c1ccccc1
Result :: f

Query :: Test call, this molecule: CC1=CC(=O)C=C(Br)C1=O
Result :: f

Query :: Test call, this molecule: COc1cc(NCCCCCNC(C)C)c2ncc(C)c(C)c2c1
Result :: f

Query :: Test call, this molecule: CCOc1ccc2nc([NH-])sc2c1.CCOc1ccc2nc([NH-])sc2c1.CCOc1ccc2nc([NH-])sc2c1.CCOc1ccc2nc([NH-])sc2c1.[Cl][Rh][Cl]
Result :: f

Query :: Test call, this molecule: NC1OC(COC(=O)c2ccccc2)C(O)C(OC(=O)c2ccccc2)C1OC(=O)c1ccccc1 (stereo not given)
Result :: f

Query :: Test call, this molecule: CCCCCCCCc1ccc2c3ccccc3c3ccccc3c2c1
Result :: f

Query :: Test call, this molecule: c1ccc(-c2c[nH]c(-c3ccccc3)c2-c2ccccc2)cc1
Result :: f

Query :: Test call, this molecule: O=[N+]([O-])c1ccc2c(c1)[n+]([O-])c1[nH]c3ccccc3c1[n+]2[O-] (tested in a mixture with another compound)
Result :: t

Query :: Test call, this molecule: Cc1ccc(S(=O)(=O)C(Br)CC(=O)c2ccccc2)cc1 (stereo not given)
Result :: f

Query :: Test call, this molecule: CCOc1ccccc1NC1=C(Cl)C(=O)c2ccccc2C1=O
Result :: t

Query :: Test call, this molecule: CNc1ccc(N=O)cc1
Result :: f

Query :: Test call, this molecule: OC(COc1ccc(Cl)cc1)COc1ccc(Cl)cc1
Result :: f

Query :: Test call, this molecule: Nc1nnc2nc(CC(=O)c3ccccc3)/c(=C/C(=O)c3ccccc3)n12
Result :: f

Query :: Test call, this molecule: O=c1c(Cl)c(Cl)oc(Cl)c1Cl
Result :: f

Query :: Test call, this molecule: O=[N+]([O-])C1=Cc2cc(Cl)ccc2OC1c1cccc2ccccc12 (stereo not given)
Result :: t

Query :: Test call, this molecule: O=c1c2ccccc2nc(-c2ccccc2)n1NC(=S)Nc1ccc(Cl)cc1[N+](=O)[O-]
Result :: f

Query :: Test call, this molecule: COc1ccc(-c2[nH]c(-c3ccc(OC)cc3)c(-c3ccccn3)c2-c2ccccn2)cc1
Result :: f

Query :: Test call, this molecule: C=C1CCC[C@@H]2[C@@](C)(CC3=CC(=O)C=CC3=O)C(C)CC[C@]12C (stereo not given in full)
Result :: f

Query :: Test call, this molecule: CC1CCCC(C(O)(C(=O)O)C2CCCC(C)C2)C1 (stereo not given)
Result :: f

Query :: Test call, this molecule: C[N+](C)(CCO)Cc1ccccc1
Result :: f

Query :: Test call, this molecule: N#CC1(C#N)C(C#N)(C#N)C12CCC2
Result :: f

Query :: Test call, this molecule: O=C1C=C(Br)C(=O)C12CCc1ccccc12 (stereo not given)
Result :: t

Query :: Test call, this molecule: N#Cc1cc([N+](=O)[O-])ccc1NC(=O)/C(=N/N)C(C(=O)c1ccc(Cl)c(Cl)c1)C1OC(=O)c2ccccc21 (stereo not given)
Result :: f

Query :: Test call, this molecule: O=C1/C(=C/c2ccc([N+](=O)[O-])cc2)CNC/C1=C\c1ccc([N+](=O)[O-])cc1
Result :: t

Query :: Test call, this molecule: Cc1ccc(S(=O)(=O)N/N=C/Cc2ccccc2)cc1
Result :: f

Query :: Test call, this molecule: CCOC(=O)N1CCN(C(=S)N/N=C(\C)c2ncccn2)CC1
Result :: f
